Where these numbers come from: patent US20180021429A1

study.target: T1, human FSTL1 (construct not stated) (human, UniProt Q12841 21-308)
T1 construct: also called human FSTL1 antigen; FSTL1 (R&D Systems, Inc. Cat#1694-FN-050)
T1 sequence: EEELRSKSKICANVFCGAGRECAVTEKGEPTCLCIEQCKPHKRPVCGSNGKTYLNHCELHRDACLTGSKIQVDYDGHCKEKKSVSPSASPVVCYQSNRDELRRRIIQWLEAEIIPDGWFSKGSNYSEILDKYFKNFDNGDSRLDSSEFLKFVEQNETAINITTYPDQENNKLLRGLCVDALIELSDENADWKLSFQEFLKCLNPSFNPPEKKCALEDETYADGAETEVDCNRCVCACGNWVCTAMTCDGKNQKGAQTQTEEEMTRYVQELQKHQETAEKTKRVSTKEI
test.method.notes: SPR (Biacore T-200), antibody on Human Antibody Capture Kit, human FSTL1 0 to 20 µg/ml
measured.parameter: pKd
# log scale: pKd equals minus log10 of the concentration in mol/L

binder	pKd
humanized #6-55 antibody H(3)-L(3) (IgG1 type) (antibody, V domains shown, Human IgG1 constant region; expressed in HEK293; also called h#6-55 H(3)-L(3)) VH: EVQLLESGGGLVQPGGSLRLSCAASGFTFSSVTMQWVRQAPGKGLEFVASVCSGSSTYYAPAVKGRVTISRDNSKNTVYLQMNSLRAEDTAVYYCAKIAGRARWSCTSAAYNIDAWGQGTLVTVSS VL: SYELTQPPSVSVSPGQTARITCSGGGNNYGWYQQKPGQAPVTVIYYNDNRPSGIPERFSGSNSGNTATLTISGVQAEDEADYYCGSWDSNTDSGIFGGGTKLTVLG	7.60
humanized #6-55 antibody H(2)-L(3) (IgG1 type) (antibody, V domains shown, Human IgG1 constant region; expressed in HEK293; also called h#6-55 H(2)-L(3)) VH: EVQLLESGGGLVQPGGSLRLSCAASGFTFSSVTMQWVRQAPGKGLEFVSSVCSGSSTYYAPAVKGRFTISRDNSKNTVYLQMNSLRAEDTAVYYCAKIAGRARWSCTSAAYNIDAWGQGTLVTVSS VL: SYELTQPPSVSVSPGQTARITCSGGGNNYGWYQQKPGQAPVTVIYYNDNRPSGIPERFSGSNSGNTATLTISGVQAEDEADYYCGSWDSNTDSGIFGGGTKLTVLG	7.35

Consider the additional binder presented here.
Give the measured pKd of humanized #6-55 antibody H(3)-L(1) (IgG1 type) (antibody, V domains shown, Human IgG1 constant region; expressed in HEK293; also called h#6-55 H(3)-L(1)) VH: EVQLLESGGGLVQPGGSLRLSCAASGFTFSSVTMQWVRQAPGKGLEFVASVCSGSSTYYAPAVKGRVTISRDNSKNTVYLQMNSLRAEDTAVYYCAKIAGRARWSCTSAAYNIDAWGQGTLVTVSS VL: SYELTQPPSVSVSPGQTARITCSGGGNNYGWYQQKPGQAPVTVIYYNDNRPSGIPERFSGSNSGSTTTLTISGVQAEDEADYYCGSWDSNTDSGIFGGGTKLTVLG .
7.57
